Study target: human dopamine D3 receptors (Homo sapiens)
Construct: expressed in transfected cells; membranes)
Assay protocol: Dopamine D3 receptor binding ([125I]-iodosulpride displacement)
Reported conditions: Table 5; membranes of HEK-293 cells; read-out: Ki D3
pKi: −log10 of the molar value.
Recorded metric: pKi

Previously resolved entries follow.
Compound	pKi
CCCc1cc(N2CCN(CCCS(=O)(=O)c3nnc(CC)n3C)CC2)nc(C(C)(C)C)n1 [Example 12]	7.89
Cl.Cn1c(-c2ccc(F)cc2)nnc1S(=O)(=O)CCCN1CCN(c2cc(C(F)(F)F)nc(C(C)(C)C)n2)CC1 [Example 16, hydrochloride]	7.75
CCCc1cc(N2CCN(CCC[S+]([O-])c3nnc(CC)n3C)CC2)nc(C(C)(C)C)n1.Cl (stereo not shown) [Example 5, hydrochloride]	7.42
CCCc1cc(N2CCN(CCCS(=O)(=O)c3nnc(C)n3C)CC2)nc(C(C)(C)C)n1 [Example 9]	7.74

A: Cc1nnc([S+]([O-])CCCN2CCN(c3cc(C4(C)CC4)nc(C(C)(C)C)n3)CC2)n1C (stereo not shown) [Example 6]
B: Cn1cnnc1[S+]([O-])CCCN1CCN(c2cc(C3CCC3)nc(C(C)(C)C)n2)CC1 (stereo not shown) [Example 3]
C: CCCc1cc(N2CCN(CCC[S+]([O-])c3nnc(C)n3C)CC2)nc(C(C)(C)C)n1.Cl (stereo not shown) [Example 8, hydrochloride]
Lookup: Exam item: list the entries in increasing order of pKi. Provide the ranking by listing each label in its place in the requested order.
Found: C, A, B
(C: 7.25, A: 7.54, B: 7.92)

====

Study target: human dopamine D3 receptors (Homo sapiens, UniProt P35462)
Construct: expressed in transfected cells; membranes)
Sequence (P35462 whole entry): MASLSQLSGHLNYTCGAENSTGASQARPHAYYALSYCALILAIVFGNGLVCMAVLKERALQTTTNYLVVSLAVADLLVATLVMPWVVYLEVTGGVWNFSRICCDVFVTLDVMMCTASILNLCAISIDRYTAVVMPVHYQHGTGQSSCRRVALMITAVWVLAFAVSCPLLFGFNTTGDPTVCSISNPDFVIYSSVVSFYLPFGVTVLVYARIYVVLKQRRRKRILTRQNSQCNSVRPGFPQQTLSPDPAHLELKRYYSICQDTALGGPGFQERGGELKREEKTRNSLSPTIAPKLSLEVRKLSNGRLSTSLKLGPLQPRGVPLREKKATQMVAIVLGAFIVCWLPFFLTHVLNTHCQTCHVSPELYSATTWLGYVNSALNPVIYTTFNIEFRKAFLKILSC
Assay protocol: Dopamine D3 receptor binding ([125I]-iodosulpride displacement)
Reported conditions: Table 7; compounds of formula IIa; read-out: D3
pKi: −log10 of the molar value.
Recorded metric: pKi

Molecule	Readout value
Cl.Cn1c(SCCCN2CCN(c3cc(C(F)(F)F)nc(C(C)(C)C)n3)CC2)nnc1C1CC1 [c.17, hydrochloride]	9.05

A: CC(=O)O.Cn1c(SCCCN2CCN(c3cc(C(F)(F)F)nc(C(C)(C)C)n3)CC2)nnc1C1CCC1 [c.18, acetate]
B: Cl.Cn1c(SCCCN2CCN(c3cc(C(F)(F)F)nc(C(C)(C)C)n3)CC2)nnc1C(F)(F)F [c.13, hydrochloride]
Lookup: // which entry has the larger pKi value, A or B ? Label of pick, please.
Found: B
(B: 8.89, A: 8.54)

====

Study target: human dopamine D3 receptors (Homo sapiens, UniProt P35462)
Construct: expressed in transfected cells; membranes)
Assay protocol: Dopamine D3 receptor binding ([125I]-iodosulpride displacement)
Reported conditions: Table 6; membranes of HEK-293 cells; read-out: ki D3
pKi: −log10 of the molar value.
Recorded metric: pKi

P: Cl.Cn1cnc([S+]([O-])CCCN2CCN(c3cc(C(F)(F)F)nc(C(C)(C)C)n3)CC2)n1 (stereo not shown) [Example 21, hydrochloride]
Q: CCCc1cc(N2CCN(CCC[S+]([O-])c3ncn(C)n3)CC2)nc(C(C)(C)C)n1.Cl (stereo not shown) [Example 28, hydrochloride]
R: Cl.Cn1cnc([S+]([O-])CCCN2CCN(c3cc(C(C)(C)C)nc(C(C)(C)C)n3)CC2)n1 (stereo not shown) [Example 30, hydrochloride]
S: Cn1cnnc1S(=O)(=O)CCCN1CCN(c2cc(C(C)(C)C)nc(C(C)(C)C)n2)CC1 [Example 17]
Lookup: sort_by: pKi; order: ascending; scope: items listed above Provide the ranking by listing each label in its place in the requested order.
Found: P, Q, S, R
(P: 7.78, Q: 8.00, S: 8.23, R: 8.46)

Measured values drawn from patent US8101754B2 for this set.
